# STUDY SYSTEM: prolyl oligopeptidase (PREP) (Homo sapiens)
# Sequence (P48147 1-710): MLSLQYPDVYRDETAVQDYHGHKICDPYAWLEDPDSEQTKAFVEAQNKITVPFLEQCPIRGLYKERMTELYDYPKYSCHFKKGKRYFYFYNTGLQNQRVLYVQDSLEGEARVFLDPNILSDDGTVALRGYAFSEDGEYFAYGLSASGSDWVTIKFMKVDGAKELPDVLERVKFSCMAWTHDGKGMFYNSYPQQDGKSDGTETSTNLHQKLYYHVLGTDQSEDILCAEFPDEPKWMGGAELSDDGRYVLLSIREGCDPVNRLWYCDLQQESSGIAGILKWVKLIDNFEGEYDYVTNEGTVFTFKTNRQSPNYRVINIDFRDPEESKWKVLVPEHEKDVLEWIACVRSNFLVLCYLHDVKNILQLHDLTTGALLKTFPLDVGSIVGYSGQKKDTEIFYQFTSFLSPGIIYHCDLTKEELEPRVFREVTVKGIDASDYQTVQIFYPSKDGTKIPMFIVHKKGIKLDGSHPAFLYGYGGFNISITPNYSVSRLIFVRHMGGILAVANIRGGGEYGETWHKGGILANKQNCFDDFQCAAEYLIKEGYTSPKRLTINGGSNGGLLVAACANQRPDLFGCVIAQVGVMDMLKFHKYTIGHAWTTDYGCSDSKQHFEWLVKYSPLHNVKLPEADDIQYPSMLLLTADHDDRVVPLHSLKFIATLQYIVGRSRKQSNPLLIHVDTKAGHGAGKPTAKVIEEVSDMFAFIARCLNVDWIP
# ASSAY TEXT: Protease inhibition (selectivity) assay, PREP, Z-Gly-Pro-AMC substrate
# ASSAY SETUP: recombinant human PREP 0.6 nM
Numbered stars: 1 amine (or outer) side, 2 acyl side, 3 side chain; on linkers, the order of the positions; unused ones are H or OH. Bridge positions count the residues as written; N and C are the ends. Square brackets hold non-standard residues; d marks the D form. Peptide text beside a SMILES is read from it. * marks the point of attachment. ξ: configuration not given here. Acetyl(4-DOTA-piperazinyl) = O=C(O)CN1CCN(CC(=O)O)CCN(CC(=O)N2CCN(CC(=O)*)CC2)CCN(CC(=O)O)CC1; X2 = O=C(O)CN1CCN(CC(=O)O)CCN(CC(=O)N2CCN(CCCN*)CC2)CCN(CC(=O)O)CC1; Azetidine3carboxylic = O=C(C1CN([*:1])C1)[*:2]; mXylylene = c1cc(C[*:1])cc(C[*:2])c1; Cha = N[C@@H](CC1CCCCC1)C(=O)O; Dap = NC[C@H](N)C(=O)O; CO = O=C([*:1])[*:2]; ξP = O=C(O)C1CCCN1; ξC = NC(CS)C(=O)O; NHBu = CCCCN*
Listed here: items and their measured IC50.
RESULT TYPE: IC50

{"columns": ["COMPOUND", "EXPERIMENTAL RESULT"],
 "data": [
  ["CCCCNC(=O)N[C@H]1CSCc2cccc(c2)CSCC(C(=O)N[C@@H](CNC(=O)CN2CCN(C(=O)CN3CCN(CC(=O)O)CCN(CC(=O)O)CCN(CC(=O)O)CC3)CC2)C(=O)O)NC(=O)[C@H](CC2CCCCC2)NC(=O)[C@H](CCC(N)=O)NC(=O)[C@H]([C@@H](C)O)NC(=O)C2CCCN2C(=O)C2CN(C2)C1=O (some centres unmarked) [JHDC47] ({NHBu-CO}-C[Azetidine3carboxylic][ξP]TQ[Cha][ξC][Dap](Acetyl(4-DOTA-piperazinyl))-OH; linker 1-7 via mXylylene)", "> 1000 nM"],
  ["CCCCNC(=O)N[C@H]1CSCc2cccc(c2)CSC[C@@H](C(=O)N[C@@H](CCC(=O)NCCCN2CCN(C(=O)CN3CCN(CC(=O)O)CCN(CC(=O)O)CCN(CC(=O)O)CC3)CC2)C(=O)O)NC(=O)[C@H](Cc2ccccc2)NC(=O)[C@H](CCC(N)=O)NC(=O)[C@H]([C@@H](C)O)NC(=O)C2CCCN2C(=O)C2CN(C2)C1=O (some centres unmarked) [JHDC48] ({NHBu-CO}-C[Azetidine3carboxylic][ξP]TQFCE(X2)-OH; linker 1-7 via mXylylene)", "> 1000 nM"]
]}

* * *

# ASSAY TEXT: Determination of C Log P (n-octanol/water partition, gamma counts)
# Assay type: physicochemical
# ASSAY SETUP: read-out: ClogP
Numbered stars: 1 amine (or outer) side, 2 acyl side, 3 side chain; on linkers, the order of the positions; unused ones are H or OH. Bridge positions count the residues as written; N and C are the ends. Square brackets hold non-standard residues; d marks the D form. Side chains are listed from the residue outwards. Peptide text beside a SMILES is read from it. * marks the point of attachment. ξ: configuration not given here. X5 = CCCCCC(=O)N[C@@H](CSCc1cccc(C[*:2])c1)C(=O)N1CCC[C@@H](NC(=O)[*:1])C1; DOTA = O=C(O)CN1CCN(CC(=O)O)CCN(CC(=O)*)CCN(CC(=O)O)CC1; Cha = N[C@@H](CC1CCCCC1)C(=O)O; AEEA = NCCOCCOCC(=O)O; ξP = O=C(O)C1CCCN1

{"columns": ["MOLECULE", "logP"],
 "data": [
  ["CCCCCC(=O)N[C@H]1CSCc2cccc(c2)CSC[C@@H](C(=O)N[C@@H](CCCCNC(=O)COCCOCCNC(=O)CN2CCN(CC(=O)O)CCN(CC(=O)O)CCN(CC(=O)O)CC2)C(=O)O)NC(=O)CNC(=O)[C@H](CC2CCCCC2)NC(=O)[C@H](CCC(N)=O)NC(=O)[C@H]([C@@H](C)O)NC(=O)C2CCCN2C(=O)N[C@@H]2CCCN(C2)C1=O (some centres unmarked) [^177Lu -JHDC15, metal not drawn] ([ξP]TQ[Cha]GCK([AEEA-DOTA])-OH; linker N-6 via X5)", -1.6],
  ["CCCCCC(=O)N[C@H]1CSCc2cc(CSCCNC(=O)CN3CCN(CC(=O)O)CCN(CC(=O)O)CCN(CC(=O)O)CC3)cc(c2)CSC[C@@H](C(=O)O)NC(=O)[C@H](Cc2ccccc2)NC(=O)[C@H](CCC(N)=O)NC(=O)[C@H]([C@@H](C)O)NC(=O)[C@@H]2CCCN2C(=O)[C@@H]2CCCN2C1=O [^177Lu-FAP-2286, metal not drawn, reference compound]", -2.74]
]}

* * *

# STUDY SYSTEM: FAP protein (Homo sapiens, UniProt Q12884)
# Construct: purchased Sinobiological
# Sequence (Q12884 whole entry): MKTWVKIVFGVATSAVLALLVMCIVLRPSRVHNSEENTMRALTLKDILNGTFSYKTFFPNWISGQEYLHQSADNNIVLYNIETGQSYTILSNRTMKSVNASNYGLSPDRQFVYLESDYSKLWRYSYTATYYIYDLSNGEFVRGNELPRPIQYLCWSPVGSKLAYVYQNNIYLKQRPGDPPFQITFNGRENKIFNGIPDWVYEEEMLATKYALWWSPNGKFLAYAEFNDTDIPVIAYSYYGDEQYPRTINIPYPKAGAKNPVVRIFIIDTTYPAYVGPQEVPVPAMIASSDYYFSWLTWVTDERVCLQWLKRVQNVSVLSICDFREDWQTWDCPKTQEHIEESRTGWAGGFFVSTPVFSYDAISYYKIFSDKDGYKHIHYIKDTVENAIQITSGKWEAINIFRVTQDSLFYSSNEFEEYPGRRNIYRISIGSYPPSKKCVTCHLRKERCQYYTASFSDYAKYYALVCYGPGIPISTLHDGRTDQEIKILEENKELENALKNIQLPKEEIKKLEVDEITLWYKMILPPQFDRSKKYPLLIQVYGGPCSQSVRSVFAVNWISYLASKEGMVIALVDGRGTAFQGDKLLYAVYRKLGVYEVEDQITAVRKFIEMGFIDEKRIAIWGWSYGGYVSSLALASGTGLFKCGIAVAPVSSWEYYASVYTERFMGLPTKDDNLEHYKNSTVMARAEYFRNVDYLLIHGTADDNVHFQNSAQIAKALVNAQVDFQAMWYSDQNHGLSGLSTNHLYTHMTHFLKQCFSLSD
# ASSAY TEXT: Biacore test of compound affinity to FAP protein
# ASSAY SETUP: Biacore 8K, SA chip, 15° C., 1:1 binding model; read-out: pKD (FAP) (converted)
Numbered stars: 1 amine (or outer) side, 2 acyl side, 3 side chain; on linkers, the order of the positions; unused ones are H or OH. Bridge positions count the residues as written; N and C are the ends. Square brackets hold non-standard residues; d marks the D form. Peptide text beside a SMILES is read from it. * marks the point of attachment. ξ: configuration not given here. Acetyl(4-DOTA-piperazinyl) = O=C(O)CN1CCN(CC(=O)O)CCN(CC(=O)N2CCN(CC(=O)*)CC2)CCN(CC(=O)O)CC1; NH(CH2)2O(CH2)2NHDOTA = O=C(O)CN1CCN(CC(=O)O)CCN(CC(=O)NCCOCCN*)CCN(CC(=O)O)CC1; Azetidine3carboxylic = O=C(C1CN([*:1])C1)[*:2]; Pyridine(3,5-bisCH2) = c1ncc(C[*:2])cc1C[*:1]; mXylylene = c1cc(C[*:1])cc(C[*:2])c1; Cha = N[C@@H](CC1CCCCC1)C(=O)O; Dap = NC[C@H](N)C(=O)O; Hexanoyl = CCCCCC(=O)*; CO = O=C([*:1])[*:2]; ξP = O=C(O)C1CCCN1; ξC = NC(CS)C(=O)O; NHBu = CCCCN*
RESULT TYPE: Kd

{"columns": ["COMPOUND", "RESULT TYPE", "EXPERIMENTAL RESULT"],
 "data": [
  ["CCCCCC(=O)N[C@H]1CSCc2cncc(c2)CSCC(C(=O)N[C@@H](CCC(=O)NCCOCCNC(=O)CN2CCN(CC(=O)O)CCN(CC(=O)O)CCN(CC(=O)O)CC2)C(=O)O)NC(=O)[C@H](Cc2ccccc2)NC(=O)[C@H](CCC(N)=O)NC(=O)[C@H]([C@@H](C)O)NC(=O)C2CCCN2C(=O)C2CN(C2)C1=O (stereo partly drawn) [JHDC32] (Hexanoyl-C[Azetidine3carboxylic][ξP]TQF[ξC]E(NH(CH2)2O(CH2)2NHDOTA)-OH; linker 1-7 via Pyridine(3,5-bisCH2))", "Kd", "10 to 100 nM"],
  ["CCCCNC(=O)N[C@H]1CSCc2cccc(c2)CSCC(C(=O)N[C@@H](CNC(=O)CN2CCN(C(=O)CN3CCN(CC(=O)O)CCN(CC(=O)O)CCN(CC(=O)O)CC3)CC2)C(=O)O)NC(=O)[C@H](CC2CCCCC2)NC(=O)[C@H](CCC(N)=O)NC(=O)[C@H]([C@@H](C)O)NC(=O)C2CCCN2C(=O)C2CN(C2)C1=O (stereo partly drawn) [JHDC47] ({NHBu-CO}-C[Azetidine3carboxylic][ξP]TQ[Cha][ξC][Dap](Acetyl(4-DOTA-piperazinyl))-OH; linker 1-7 via mXylylene)", "Kd", "< 10 nM"],
  ["CCCCNC(=O)N[C@H]1CSSCC(C(=O)N[C@@H](CCC(=O)NCCOCCNC(=O)CN2CCN(CC(=O)O)CCN(CC(=O)O)CCN(CC(=O)O)CC2)C(=O)O)NC(=O)[C@H](Cc2ccccc2)NC(=O)[C@H](CCC(N)=O)NC(=O)[C@H]([C@@H](C)O)NC(=O)C2CCCN2C(=O)C2CN(C2)C1=O (stereo partly drawn) [JHDC31] ({NHBu-CO}-C[Azetidine3carboxylic][ξP]TQF[ξC]E(NH(CH2)2O(CH2)2NHDOTA)-OH; disulfide 1-7)", "Kd", "10 to 100 nM"]
]}
